Target Of Assay: porcine acylamino-acid-releasing enzyme (AARE or APEH) (Sus scrofa)
Sequence (P19205 1-732): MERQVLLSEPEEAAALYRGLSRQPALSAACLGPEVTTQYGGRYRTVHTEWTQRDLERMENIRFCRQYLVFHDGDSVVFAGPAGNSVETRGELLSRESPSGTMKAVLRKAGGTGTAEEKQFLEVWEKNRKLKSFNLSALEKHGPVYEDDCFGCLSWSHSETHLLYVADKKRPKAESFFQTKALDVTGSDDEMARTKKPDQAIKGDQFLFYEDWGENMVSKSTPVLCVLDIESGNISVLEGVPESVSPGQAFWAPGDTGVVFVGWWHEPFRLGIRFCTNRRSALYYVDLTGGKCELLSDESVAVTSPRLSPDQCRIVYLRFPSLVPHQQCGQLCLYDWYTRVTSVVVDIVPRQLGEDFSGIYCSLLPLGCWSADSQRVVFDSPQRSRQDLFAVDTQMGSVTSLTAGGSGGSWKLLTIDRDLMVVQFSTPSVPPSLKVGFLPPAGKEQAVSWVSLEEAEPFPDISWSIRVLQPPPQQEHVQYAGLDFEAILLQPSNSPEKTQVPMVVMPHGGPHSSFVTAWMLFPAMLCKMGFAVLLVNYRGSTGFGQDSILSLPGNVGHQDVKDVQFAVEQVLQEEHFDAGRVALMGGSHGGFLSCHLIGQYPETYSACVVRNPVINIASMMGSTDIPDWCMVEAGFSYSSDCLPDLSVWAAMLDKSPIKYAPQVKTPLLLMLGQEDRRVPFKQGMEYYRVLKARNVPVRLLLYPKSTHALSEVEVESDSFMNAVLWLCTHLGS
Assay: Inhibition of porcine acylamino-acid-releasing enzyme
Type: biochemical
Measurement Context: IC50 towards porcine acylamino-acid-releasing enzyme (AARE or APEH)
pIC50: −log10 of the molar value.
Reported Metric: pIC50

> print(dat)
                                  substance                           target.of.assay  reported.metric  meas.value
1  H-TILAEIKNINAD-NH2 [SsCEI 4, TILAEIKNINAD]  porcine acylamino-acid-releasing enzyme (AARE or APEH) (Sus scrofa)            pIC50        4.46
2  H-YAIDTILAEIKNINAD-NH2 [SsCEI 3, YAIDTILAEIKNINAD]  porcine acylamino-acid-releasing enzyme (AARE or APEH) (Sus scrofa)            pIC50        4.70
